The reported numbers originate from patent US20250230248A1.

target-under-test: T1, cMET extracellular domain (ECD) (UniProt P08581 25-932, limits assumed)
T1 construct: extracellular domain; Probably the same reagent as recombinant human cMET; also called cMET ECD
T1 sequence (P08581 25-932 limits assumed): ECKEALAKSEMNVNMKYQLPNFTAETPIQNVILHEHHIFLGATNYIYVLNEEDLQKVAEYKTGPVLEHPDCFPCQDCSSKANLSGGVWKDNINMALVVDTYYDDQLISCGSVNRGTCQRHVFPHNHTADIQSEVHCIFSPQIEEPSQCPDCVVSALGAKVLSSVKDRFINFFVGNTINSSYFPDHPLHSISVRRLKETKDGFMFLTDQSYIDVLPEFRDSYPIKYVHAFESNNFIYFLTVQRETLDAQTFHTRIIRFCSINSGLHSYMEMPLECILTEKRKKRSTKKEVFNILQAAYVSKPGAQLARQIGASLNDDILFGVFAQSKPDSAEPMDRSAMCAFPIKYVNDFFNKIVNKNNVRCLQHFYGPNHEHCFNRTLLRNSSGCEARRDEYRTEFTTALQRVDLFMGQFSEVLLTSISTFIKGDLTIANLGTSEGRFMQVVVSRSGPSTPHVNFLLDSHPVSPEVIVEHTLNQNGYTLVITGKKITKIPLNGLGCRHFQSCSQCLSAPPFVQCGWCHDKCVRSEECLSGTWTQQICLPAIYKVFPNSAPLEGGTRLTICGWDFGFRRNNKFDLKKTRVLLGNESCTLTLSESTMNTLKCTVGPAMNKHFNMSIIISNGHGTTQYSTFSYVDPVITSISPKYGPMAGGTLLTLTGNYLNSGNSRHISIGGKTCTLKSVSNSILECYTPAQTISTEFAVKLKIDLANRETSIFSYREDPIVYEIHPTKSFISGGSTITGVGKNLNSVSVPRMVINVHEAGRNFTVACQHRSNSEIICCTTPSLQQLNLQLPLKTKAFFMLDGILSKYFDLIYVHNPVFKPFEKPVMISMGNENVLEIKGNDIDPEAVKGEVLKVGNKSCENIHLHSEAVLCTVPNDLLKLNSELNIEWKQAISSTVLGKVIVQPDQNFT
experiment-description: ELISA on cMET ECD, FIG. 3A
Each entry below lists one item and its recorded EC50 value.

# count of solved cases: 3
{"columns": ["binder", "endpoint-name", "readout-value"],
 "data": [
  ["Onartuzumab (antibody, V domains shown, also called cMET OVH0 / cMET OVL0) VH: EVQLVESGGGLVQPGGSLRLSCAASGYTFTSYWLHWVRQAPGKGLEWVGMIDPSNSDTRFNPNFKDRFTISADTSKNTAYLQMNSLRAEDTAVYYCATYRSYVTPLDYWGQGTLVTVSS VL: DIQMTQSPSSLSASVGDRVTITCKSSQSLLYTSSQKNYLAWYQQKPGKAPKLLIYWASTRESGVPSRFSGSGSGTDFTLTISSLQPEDFATYYCQQYYAYPWTFGQGTKVEIK", "EC50", "~0.025 µg/mL"],
  ["TV4 (antibody, V domains shown, anti-cMET mAb hit; also called cMET TVH2 / cMET TVL2) VH: QVQLQESGPGLVKPSGTLSLTCAVSGYIFTAYTMHWVRQPPGKGLEWIGGIKPNNGLANYNPSLKSRATLSVDKSKNQASMKLSSVTAADTAVYYCARSEITTEFDYWGQGTLVTVSS VL: DIQMTQSPSSLSASVGDRVTITCRASESVDSYANSFMHWYQQKPGKAPKLLIYRASNLESGVPSRFSGSGSGTDFTLTISSLQPEDFATYYCQQSKEDPLTFGGGTKVEIK", "EC50", "~0.018 µg/mL"],
  ["EV1 (antibody, V domains shown, anti-cMET mAb hit; also called cMET EVH1 / cMET EVL1) VH: QVQLVQSGAEVKKPGASVKVSCKASGYTFTDYYMHWVRQAPGQGLEWMGRVNPNRGGTTYAQKFQGRVTMTTDTSISTAYMELSRLRSDDTAVYYCARANWLDYWGQGTTVTVSS VL: DIQMTQSPSSLSASVGDRVTITCRVSQSVSSIYLHWYQQKPGKAPKLLIYSTSNLQSGVPSRFSGSGSGTDFTLTISSLQPEDFATYYCQVYSGYPLTFGGGTKVEIK", "EC50", "~0.0175 µg/mL"]
]}

Shift focus to the following entry.
Query: EC50 for TV1 (antibody, V domains shown, anti-cMET mAb hit; also called cMET TVH1 / cMET TVL0) VH: QVQLVQSGAEVKKPGSSVKVSCKASGYIFTAYTMHWVRQAPGQGLEWMGGIKPNNGLANYAQKFQGRVTITADESTSTAYMELSSLRSEDTAVYYCARSEITTEFDYWGQGTLVTVSS VL: DIVMTQSPDSLAVSLGERATINCKSSESVDSYANSFLHWYQQKPGQPPKLLIYRASTRESGVPDRFSGSGSGTDFTLTISSLQAEDVAVYYCQQSKEDPLTFGGGTKVEIK ?
Response: ~0.0185 µg/mL
